Assay: Inhibition of bovine liver beta-glucosidase
readout.name: pIC50
Entry type: numeric. Quantity: pIC50, the -log10 of concentration in molar units.

Reported pIC50 for CC[C@@H]1NC[C@@H](O)[C@@H](O)[C@H](O)[C@H]1O : what is it?
3.31
